Values from patent US5264430A

- Tested on: thrombin (Homo sapiens, UniProt P00734)
- Construct: Purified thrombin from human plasma
- Assay name: Selectivity against various proteases: thrombin (THR)
- Measurement context: human plasma, pH 8.6, 22° C., 10 minute preincubation
- Procedure: TRY = trypsin, THR = thrombin, PLM = plasmin, CTC = cathepsin C, APM = Enzyme: Purified thrombin from human plasma Substrate: Tosyl-glycyl-L-prolyl-L-arginine-p-NA acetate 50 mM Tricine-NaOH buffer (PH 8.6) Except for Cathepsin D, the enzyme activities were determined by monitoring the increase in absorbance at 410 nm caused by the hydrolysis of chromogenic substrates. The activity of Cathepsin D was determined by monitoring the absorbance of 5% trichloroacetic acid-soluble material at 280 nm. […]
Result type: IC50 (µM)

Would you please look over these solved cases?
INSERT INTO results (compound, tested_on, result_type, reported_measurement) VALUES
  ('CC1=C(C(=O)OC(c2ccccc2)c2ccccc2)N2C(=O)[C@H](Br)[C@H]2S(=O)(=O)C12CC2(c1ccc(F)cc1)c1ccc(F)cc1 (single isomer, unassigned) [Example 13]', 'thrombin (Homo sapiens, UniProt P00734)', 'IC50', 40),
  ('CCOC(=O)C1CC12C(C)=C(C(=O)OC(c1ccccc1)c1ccccc1)N1C(=O)[C@H](Br)[C@H]1S2(=O)=O (stereo partly shown) [Example 13 (1)]', 'thrombin (Homo sapiens, UniProt P00734)', 'IC50', 40),
  ('CO[C@H]1C(=O)N2C(C(=O)N3CCCCC3)=C(C)C3(CC3(c3ccccc3)c3ccccc3)S(=O)(=O)[C@H]12 (stereo partly shown) [Example 11]', 'thrombin (Homo sapiens, UniProt P00734)', 'IC50', 39.9);

[P] CC1=C(C(=O)OC(c2ccccc2)c2ccccc2)N2C(=O)[C@H](Br)[C@H]2S(=O)(=O)C12CC2(c1ccc(Cl)cc1)c1ccc(Cl)cc1 (single isomer, unassigned) [Example 12]
[Q] CO[C@H]1C(=O)N2C(C(=O)OCC(Cl)(Cl)Cl)=C(C)C3(CC3(c3ccccc3)c3ccccc3)S(=O)(=O)[C@H]12 (stereo partly shown) [Example 8]
Given the listed records, identify the one among P and Q with higher IC50. Kindly give the label for the entry you pick.
P

[A] CC1=C(C(=O)OC(c2ccccc2)c2ccccc2)N2C(=O)[C@H](Br)[C@H]2S(=O)(=O)C12CC2(C)c1ccccc1 (stereo partly shown) [Example 13 (2)]
[B] CO[C@H]1C(=O)N2C(C(=O)OC(c3ccccc3)c3ccccc3)=C(C)C3(CC3(c3ccccc3)c3ccccc3)S(=O)(=O)[C@H]12 (stereo partly shown) [Example 9]
Given the listed records, identify the one among A and B with higher IC50. Kindly give the label for the entry you pick.
A

* * *

- Tested on: cathepsin G (Homo sapiens)
- Construct: Purified Cathepsin G from human white blood cells
- Sequence (P08311 21-244 limits assumed): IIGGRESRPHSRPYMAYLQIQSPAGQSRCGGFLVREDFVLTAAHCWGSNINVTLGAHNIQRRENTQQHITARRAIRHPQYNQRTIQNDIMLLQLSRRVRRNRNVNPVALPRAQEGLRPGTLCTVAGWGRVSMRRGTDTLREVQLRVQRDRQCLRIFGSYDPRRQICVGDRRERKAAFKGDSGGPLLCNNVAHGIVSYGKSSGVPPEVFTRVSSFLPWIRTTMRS
- Assay name: Selectivity against various proteases: cathepsin G (CTG)
- Measurement context: cathepsin G 50 nM, human white blood cells, pH 7.5, 30° C., 10 minute preincubation
pIC50: −log10 of the molar value.
Result type: pIC50

INSERT INTO assay_data (molecule, tested_on, reported_measurement) VALUES
  ('CC1=C(C(=O)OC(c2ccccc2)c2ccccc2)N2C(=O)[C@H](Cl)[C@H]2S(=O)(=O)C12CC2(c1ccccc1)c1ccccc1 (single isomer, unassigned)', 'cathepsin G (Homo sapiens)', 4.70);

[a] CC1=C(C(=O)OC(c2ccccc2)c2ccccc2)N2C(=O)[C@H](Br)[C@H]2S(=O)(=O)C12CC2(c1ccccc1)c1ccccc1 (single isomer, unassigned)
[b] CO[C@H]1C(=O)N2C(C(=O)N3CCCC3)=C(C)C3(CC3(c3ccccc3)c3ccccc3)S(=O)(=O)[C@H]12 (stereo partly drawn)
Looking only at measured pIC50, which entry is lower, a or b ? Kindly give the label for the entry you pick.
b

* * *

- Tested on: thrombin (Homo sapiens, UniProt P00734)
- Construct: Purified thrombin from human plasma
- Assay name: Selectivity against various proteases: thrombin (THR)
- Measurement context: human plasma, pH 8.6, 22° C., 10 minute preincubation
Result type: IC50 (µM)

INSERT INTO measurements (compound, tested_on, unit_abbreviation, reported_measurement) VALUES
  ('CC1=C(C(=O)OC(c2ccccc2)c2ccccc2)N2C(=O)[C@H](Cl)[C@H]2S(=O)(=O)C12CC2(c1ccccc1)c1ccccc1 (single isomer, unassigned) [Example 1]', 'thrombin (Homo sapiens, UniProt P00734)', 'µM', 40),
  ('CO[C@H]1C(=O)N2C(C(=O)N3CCCC3)=C(C)C3(CC3(c3ccccc3)c3ccccc3)S(=O)(=O)[C@H]12 (stereo partly drawn) [Example 10]', 'thrombin (Homo sapiens, UniProt P00734)', 'µM', 40),
  ('CC1=C(C(=O)N2CCCC2)N2C(=O)[C@H](Br)[C@H]2S(=O)(=O)C12CC2(c1ccccc1)c1ccccc1 (stereo partly drawn) [Example 6]', 'thrombin (Homo sapiens, UniProt P00734)', 'µM', 39);
